System: MDA-MB-468 complex spheroids with HUVEC/MSC, viability
Assay: Anticancer human tumor MDA-MB-468 cell line growth inhibition;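 also: spheroids exposed to agents for seven days; 100% = DMSO vehicle control viability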
Details: second compound 1 µM; first compound 0.001 µM; stronger effect = lower value
ENDPOINT: viability, T/C (%)
Report only the number, with the unit % understood.

I'd like to know its viability, T/C. The molecule in question is Cn1ncnc1C1c2n[nH]c(=O)c3cc(F)cc(c23)NC1c1ccc(F)cc1 (stereo not drawn) + NC1CCC(NC2CC2c2ccccc2)CC1
85

And CC(C)CC(NC(=O)C(Cc1ccccc1)NC(=O)c1cnccn1)B(O)O (stereo not drawn) + NC1CC1c1ccc(-c2cccc(O)c2)cc1 ?
0.08

And CC(C)CC(NC(=O)CNC(=O)c1cc(Cl)ccc1Cl)B1OC(=O)CC(CC(=O)O)(C(=O)O)O1 (stereo not drawn) + NC1CC1c1ccc(-c2cccc(O)c2)cc1 ?
109

And Cn1ncnc1C1c2n[nH]c(=O)c3cc(F)cc(c23)NC1c1ccc(F)cc1 (stereo not drawn) + NC1CC1c1ccc(-c2cccc(O)c2)cc1 ?
112

And CC[C@@]1(O)C(=O)OCc2c1cc1n(c2=O)Cc2cc3c(CN(C)C)c(O)ccc3nc2-1 + NC1CCC(NC2CC2c2ccccc2)CC1 ?
37.3

And CC(C)CC(NC(=O)C(Cc1ccccc1)NC(=O)c1cnccn1)B(O)O (stereo not drawn) + NC1CCC(NC2CC2c2ccccc2)CC1 ?
22.2

And CC(C)CC(NC(=O)CNC(=O)c1cc(Cl)ccc1Cl)B1OC(=O)CC(CC(=O)O)(C(=O)O)O1 (stereo not drawn) + NC1CCC(NC2CC2c2ccccc2)CC1 ?
118

And CC[C@@]1(O)C(=O)OCc2c1cc1n(c2=O)Cc2cc3c(CN(C)C)c(O)ccc3nc2-1 + NC1CC1c1ccc(-c2cccc(O)c2)cc1 ?
55.3

The origin of these recorded values is PubChem BioAssay AID1918954.
